Subject of test: PIK3CD (Human)
Assay: Evaluation of PIK3CD inhibitors on Basophil Function by Histamine Release Assay
Applied conditions: basophils
Measured attribute: pEC50
pEC50 is defined as minus the log10 of a concentration measured in mol/L.

Problem: Report pEC50 for Cc1cccc2nc(CSc3ncnc4[nH]cnc34)n(-c3ccccc3Cl)c(=O)c12
Result: 7.60

---

Subject of test: PIK3CD (Human)
Assay: Evaluation of PIK3CD inhibitors on Elastase Release in Human PMN Cells
pEC50: −log10 of the molar value.
Threshold rule: pEC50 greater than or equal to 6 is MET; below that, NOT MET.

Use the examples below as a reference point.
Smi: O=c1c2ccccc2nc(CSc2ncnc3[nH]cnc23)n1-c1ccccc1Cl
Subject of test: PIK3CD (Human)
Category: NOT MET

Smi: COc1ccccc1-n1c(CSc2ncnc3[nH]cnc23)nc2cccc(C)c2c1=O
Subject of test: PIK3CD (Human)
Category: MET

Smi: Nc1ncnc2c1ncn2Cc1nc2cccc(F)c2c(=O)n1Cc1ccccc1
Subject of test: PIK3CD (Human)
Category: NOT MET

Smi: O=c1c2c(Cl)cccc2nc(CSc2ncnc3[nH]cnc23)n1-c1ccccc1Cl
Subject of test: PIK3CD (Human)
Category: MET

Problem: Hi, just wondering whether O=c1c2ccccc2nc(CSc2ncnc3[nH]ncc23)n1-c1ccccc1Cl shows pEC50 of 6 or higher.
Result: NOT MET

---

Subject of test: PIK3CD (Human) (UniProt O00329)
Sequence (O00329 whole entry, looked up): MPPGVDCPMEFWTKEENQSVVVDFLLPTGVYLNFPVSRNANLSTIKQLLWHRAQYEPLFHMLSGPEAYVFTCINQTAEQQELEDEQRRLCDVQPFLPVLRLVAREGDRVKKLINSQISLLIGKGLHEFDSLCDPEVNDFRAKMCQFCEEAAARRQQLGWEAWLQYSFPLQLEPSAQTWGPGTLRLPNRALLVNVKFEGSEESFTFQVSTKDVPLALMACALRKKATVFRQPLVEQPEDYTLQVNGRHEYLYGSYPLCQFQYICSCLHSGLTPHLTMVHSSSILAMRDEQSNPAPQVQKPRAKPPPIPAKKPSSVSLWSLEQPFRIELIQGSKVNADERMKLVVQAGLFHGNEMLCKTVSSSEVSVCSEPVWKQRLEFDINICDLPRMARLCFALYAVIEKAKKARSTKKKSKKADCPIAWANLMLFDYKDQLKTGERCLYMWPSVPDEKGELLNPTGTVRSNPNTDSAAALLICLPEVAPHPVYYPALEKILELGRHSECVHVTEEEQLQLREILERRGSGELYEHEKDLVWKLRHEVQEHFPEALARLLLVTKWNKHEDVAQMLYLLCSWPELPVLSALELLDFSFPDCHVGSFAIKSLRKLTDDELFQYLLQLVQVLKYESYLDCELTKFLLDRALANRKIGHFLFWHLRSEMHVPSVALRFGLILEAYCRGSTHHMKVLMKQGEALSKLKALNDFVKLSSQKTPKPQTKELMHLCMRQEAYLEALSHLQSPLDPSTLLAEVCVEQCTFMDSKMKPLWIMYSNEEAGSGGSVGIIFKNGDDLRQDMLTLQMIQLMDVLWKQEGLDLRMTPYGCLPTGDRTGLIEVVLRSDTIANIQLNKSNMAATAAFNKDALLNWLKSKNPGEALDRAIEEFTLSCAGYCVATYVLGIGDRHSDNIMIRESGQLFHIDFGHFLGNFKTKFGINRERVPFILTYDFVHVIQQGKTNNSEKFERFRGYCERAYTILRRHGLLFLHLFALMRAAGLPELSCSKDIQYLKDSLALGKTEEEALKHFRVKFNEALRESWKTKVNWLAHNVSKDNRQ
Assay: Assessment of Cell Proliferation in KU812 Cells
Measured attribute: EC50 (nM)
# value in nM; strip the unit string

Problem: Fill in reported EC50 for this entry: O=c1c2ccccc2nc(CSc2ncnc3[nH]cnc23)n1-c1ccccc1Cl
Result: 2000

---

Listing of entries alongside the reported inhibition.
Subject of test: PIK3CG (UniProt P48736)
Sequence (P48736 whole entry, looked up): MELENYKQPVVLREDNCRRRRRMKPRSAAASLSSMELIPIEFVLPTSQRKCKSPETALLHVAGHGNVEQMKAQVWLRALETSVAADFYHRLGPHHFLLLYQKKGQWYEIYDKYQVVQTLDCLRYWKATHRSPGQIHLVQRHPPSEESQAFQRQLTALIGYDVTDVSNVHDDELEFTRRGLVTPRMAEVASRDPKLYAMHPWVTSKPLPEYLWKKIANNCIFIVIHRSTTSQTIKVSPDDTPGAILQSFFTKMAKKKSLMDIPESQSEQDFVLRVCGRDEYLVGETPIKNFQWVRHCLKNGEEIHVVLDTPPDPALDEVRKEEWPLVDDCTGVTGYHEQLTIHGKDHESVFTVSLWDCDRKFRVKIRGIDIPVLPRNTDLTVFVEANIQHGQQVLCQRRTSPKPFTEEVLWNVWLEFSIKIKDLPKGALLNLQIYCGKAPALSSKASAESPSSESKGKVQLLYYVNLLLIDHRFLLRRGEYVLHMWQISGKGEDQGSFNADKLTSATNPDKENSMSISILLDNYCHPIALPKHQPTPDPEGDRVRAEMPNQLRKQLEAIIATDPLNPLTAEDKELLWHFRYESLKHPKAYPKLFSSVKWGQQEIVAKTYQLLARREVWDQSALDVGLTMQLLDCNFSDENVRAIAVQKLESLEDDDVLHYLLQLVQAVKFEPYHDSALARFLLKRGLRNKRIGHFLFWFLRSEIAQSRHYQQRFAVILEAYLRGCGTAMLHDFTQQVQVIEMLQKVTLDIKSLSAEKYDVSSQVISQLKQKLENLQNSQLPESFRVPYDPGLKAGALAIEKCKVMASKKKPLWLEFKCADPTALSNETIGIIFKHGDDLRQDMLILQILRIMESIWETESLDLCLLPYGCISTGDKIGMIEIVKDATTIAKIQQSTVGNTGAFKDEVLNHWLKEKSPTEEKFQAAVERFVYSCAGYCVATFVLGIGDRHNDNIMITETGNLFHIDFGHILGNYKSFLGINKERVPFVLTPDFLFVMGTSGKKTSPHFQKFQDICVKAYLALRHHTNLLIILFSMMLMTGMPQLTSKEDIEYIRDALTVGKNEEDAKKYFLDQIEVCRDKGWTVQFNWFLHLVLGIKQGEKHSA
Assay: Inhibition of PIK3CG Kinase Activity
Applied conditions: concentration not given here

Smi: O=c1c2ccccc2nc(CSc2ncnc3[nH]cnc23)n1-c1ccccc1
Recorded value: 39%
--
Smi: Nc1ncnc2c1ncn2Cc1nc2cccc(F)c2c(=O)n1-c1ccccc1Cl
Recorded value: 9%
--
Smi: O=c1c2ccccc2nc(CSc2ncnc3[nH]cnc23)n1N1CCOCC1
Recorded value: 57%
--
Smi: O=c1c2ccc(F)cc2nc(CSc2ncnc3[nH]cnc23)n1-c1ccccc1Cl
Recorded value: 40%

Problem: Specify inhibition for O=c1c2c(F)cccc2nc(CSc2ncnc3[nH]cnc23)n1-c1ccccc1Cl and stop.
Result: 83%

---

Subject of test: PIK3CD (Human)
Assay: Assessment of RWLeu4 Cell Proliferation
Measured attribute: EC50 (nM)
Reply with just the number (in nM).

Problem: Return the recorded EC50 value; entry: O=c1c2ccccc2nc(CSc2ncnc3[nH]cnc23)n1-c1ccccc1Cl
Result: 2000

---

Subject of test: PIK3CD (Human)
Assay: Assessment of Stimulus Induced TCE Cell Proliferation
Applied conditions: t cells
Measured attribute: pEC50
The scale used: pEC50 is minus the common logarithm of the concentration in molar units.

Smi: CCCCn1c(CSc2ncnc3[nH]cnc23)nc2ccccc2c1=O
Recorded value: 5.54

Smi: Nc1ncnc2c1ncn2Cc1nc2cccc(F)c2c(=O)n1Cc1ccccc1
Recorded value: 5.20

Smi: Cc1cccc2nc(CSc3ncnc4[nH]cnc34)n(-c3ccccc3Cl)c(=O)c12
Recorded value: 5.46

Smi: O=c1c2c(F)cccc2nc(CSc2ncnc3[nH]cnc23)n1Cc1ccccc1
Recorded value: 5.59

Problem: Supply reported pEC50 belonging to this compound: Cc1cccc2nc(Cn3cnc4c(N)ncnc43)n(-c3ccccc3C(C)C)c(=O)c12
Result: 5.47

Problem: Return reported pEC50. Input compound: Nc1ncnc2c1ncn2Cc1nc2cc(F)ccc2c(=O)n1-c1ccccc1Cl
Result: 5.24

Problem: Using the record for O=c1c2c(Cl)cccc2nc(CSc2ncnc3[nH]cnc23)n1-c1ccccc1Cl , state its measured pEC50.
Result: 5.36

---

Subject of test: PIK3CB (UniProt P42338)
Sequence (P42338 whole entry, looked up): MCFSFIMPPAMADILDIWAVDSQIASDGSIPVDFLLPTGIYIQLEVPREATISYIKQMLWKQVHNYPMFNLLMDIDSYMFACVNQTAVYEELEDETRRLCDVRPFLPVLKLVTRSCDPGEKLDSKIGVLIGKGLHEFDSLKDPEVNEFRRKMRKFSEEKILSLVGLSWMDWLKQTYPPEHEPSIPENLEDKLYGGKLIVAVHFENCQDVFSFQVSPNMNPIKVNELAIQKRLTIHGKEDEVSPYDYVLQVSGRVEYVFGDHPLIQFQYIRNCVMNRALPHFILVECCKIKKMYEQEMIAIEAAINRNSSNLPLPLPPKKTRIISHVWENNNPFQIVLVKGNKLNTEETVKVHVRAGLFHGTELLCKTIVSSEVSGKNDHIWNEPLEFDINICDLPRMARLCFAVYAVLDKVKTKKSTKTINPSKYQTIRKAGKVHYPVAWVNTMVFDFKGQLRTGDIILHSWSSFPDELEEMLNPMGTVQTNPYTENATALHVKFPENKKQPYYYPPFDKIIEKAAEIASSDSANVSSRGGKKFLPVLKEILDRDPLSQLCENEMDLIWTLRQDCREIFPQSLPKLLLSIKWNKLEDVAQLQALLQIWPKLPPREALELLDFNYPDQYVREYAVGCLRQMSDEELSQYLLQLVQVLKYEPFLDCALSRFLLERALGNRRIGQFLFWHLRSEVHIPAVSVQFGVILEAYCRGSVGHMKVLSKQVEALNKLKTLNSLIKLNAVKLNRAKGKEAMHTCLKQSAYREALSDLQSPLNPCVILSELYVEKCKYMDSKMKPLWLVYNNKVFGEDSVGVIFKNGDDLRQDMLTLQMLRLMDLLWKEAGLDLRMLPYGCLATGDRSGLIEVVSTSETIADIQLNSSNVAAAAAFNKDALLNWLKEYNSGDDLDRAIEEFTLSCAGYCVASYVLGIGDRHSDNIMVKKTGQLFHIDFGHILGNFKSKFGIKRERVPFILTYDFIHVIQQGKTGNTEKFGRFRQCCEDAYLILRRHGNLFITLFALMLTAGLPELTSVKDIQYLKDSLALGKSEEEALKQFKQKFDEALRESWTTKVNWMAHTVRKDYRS
Assay: Inhibition of PIK3CB Kinase Activity
Applied conditions: concentration not given here
Label scheme for inhibition: lower than 20% is n, 20% and above is y.

A selection of reference data follows.
Smi: O=c1c2ccccc2nc(CSc2ncnc3[nH]cnc23)n1-c1ccc(Cl)cc1
Category: y

Smi: CCOC(=O)Cn1c(CSc2ncnc3[nH]cnc23)nc2cccc(F)c2c1=O
Category: y

Smi: COc1cc2nc(CSc3ncnc4[nH]cnc34)n(-c3ccccc3Cl)c(=O)c2cc1OC
Category: n

Smi: O=c1c2c(Cl)cccc2nc(CSc2ncnc3[nH]cnc23)n1-c1ccccc1-c1ccccc1
Category: y

Smi: O=c1c2cc(O)ccc2nc(CSc2ncnc3[nH]cnc23)n1-c1ccccc1Cl
Category: y

Problem: Is inhibition at least 20%? Consider Nc1ncnc2c1ncn2Cc1nc2ccc(Cl)cc2c(=O)n1-c1ccccc1Cl
Result: n

Problem: Item O=c1c2cc(Br)ccc2nc(CSc2ncnc3[nH]cnc23)n1-c1ccccc1Cl with inhibition of 20% or above?
Result: n

Problem: Decide: inhibition of COc1cccc(-n2c(CSc3ncnc4[nH]cnc34)nc3ccccc3c2=O)c1 >= 20%?
Result: y

Problem: I'd appreciate it if you could say whether O=c1c2ccccc2nc(CSc2ncnc3[nH]cnc23)n1Cc1ccccc1 has inhibition at least equal to 20%.
Result: y

---

Subject of test: PIK3CD (Human) (UniProt O00329)
Assay: Evaluation of PIK3CD inhibitors on Elastase Release in Human PMN Cells
Measured attribute: pEC50
Worth noting: pEC50 values are minus log10 of concentrations stated in mol/L.

Here are 3 compounds together with their reported answers.
Smi: CCOC(=O)Cn1c(CSc2ncnc3[nH]cnc23)nc2cccc(F)c2c1=O
pEC50: 5.05
//
Smi: Nc1ncnc2c1ncn2Cc1nc2cccc(Cl)c2c(=O)n1-c1ccccc1F
pEC50: 6.52
//
Smi: O=c1c2cc(F)c(F)cc2nc(CSc2ncnc3[nH]cnc23)n1-c1ccccc1Cl
pEC50: 5.70

Problem: Assign pEC50 to the following record: Cc1cccc2nc(CSc3ncnc4[nH]cnc34)n(-c3ccccc3F)c(=O)c12
Result: 6.15

---

Subject of test: PIK3CA (UniProt P42336)
Sequence (P42336 whole entry, looked up): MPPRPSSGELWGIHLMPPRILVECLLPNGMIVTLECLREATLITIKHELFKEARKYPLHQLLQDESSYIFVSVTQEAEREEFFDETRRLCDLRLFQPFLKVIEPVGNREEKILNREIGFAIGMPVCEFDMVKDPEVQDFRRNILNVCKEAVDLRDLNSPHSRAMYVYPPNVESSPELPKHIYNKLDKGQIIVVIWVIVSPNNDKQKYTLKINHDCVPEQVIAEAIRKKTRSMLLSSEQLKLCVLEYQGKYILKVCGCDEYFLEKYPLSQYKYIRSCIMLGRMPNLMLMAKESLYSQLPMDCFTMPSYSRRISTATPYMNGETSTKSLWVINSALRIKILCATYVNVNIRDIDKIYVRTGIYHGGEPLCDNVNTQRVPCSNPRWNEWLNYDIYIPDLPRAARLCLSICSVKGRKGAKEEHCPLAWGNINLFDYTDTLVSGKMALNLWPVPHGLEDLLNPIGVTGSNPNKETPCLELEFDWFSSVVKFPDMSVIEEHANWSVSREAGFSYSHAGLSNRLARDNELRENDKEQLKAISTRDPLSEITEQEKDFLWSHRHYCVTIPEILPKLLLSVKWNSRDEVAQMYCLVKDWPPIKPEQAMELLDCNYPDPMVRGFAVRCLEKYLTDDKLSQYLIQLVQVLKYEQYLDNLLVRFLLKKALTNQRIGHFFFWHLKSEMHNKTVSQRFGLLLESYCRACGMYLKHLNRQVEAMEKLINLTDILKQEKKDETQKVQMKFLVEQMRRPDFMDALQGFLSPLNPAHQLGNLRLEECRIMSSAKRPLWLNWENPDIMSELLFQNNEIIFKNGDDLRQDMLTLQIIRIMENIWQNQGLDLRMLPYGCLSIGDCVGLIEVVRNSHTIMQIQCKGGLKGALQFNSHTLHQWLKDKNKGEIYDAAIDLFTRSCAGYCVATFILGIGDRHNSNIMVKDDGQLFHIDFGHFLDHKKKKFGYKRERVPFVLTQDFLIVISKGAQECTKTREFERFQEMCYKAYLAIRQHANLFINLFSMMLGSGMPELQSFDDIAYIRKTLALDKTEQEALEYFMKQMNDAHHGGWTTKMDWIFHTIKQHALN
Assay: Inhibition of PIK3CA Kinase Activity
Applied conditions: concentration not given here
Threshold rule: inhibition greater than or equal to 20% is y; below that, n.

Below, 2 molecules whose answers are already recorded.
Smi: Nc1ncnc2c1ncn2Cc1nc2ccc(Cl)cc2c(=O)n1-c1ccccc1Cl
Category: n
--
Smi: COc1ccccc1-n1c(CSc2ncnc3[nH]cnc23)nc2ccccc2c1=O
Category: y

Problem: inhibition >= 20% for O=c1c2cc(Br)ccc2nc(CSc2ncnc3[nH]cnc23)n1-c1ccccc1Cl ?
Result: n

Problem: Answer whether inhibition of Nc1ncnc2c1ncn2Cc1nc2ccccc2c(=O)n1N1CCOCC1 is greater than or equal to 20%.
Result: n

Problem: Please tell me: is the molecule Nc1ncnc2c1ncn2Cc1nc2cccc(F)c2c(=O)n1Cc1ccccc1 at or over 20% in terms of inhibition?
Result: n

Problem: Record O=c1c2ccccc2nc(CSc2ncnc3[nH]cnc23)n1-c1ccncc1 ; criterion: inhibition no lower than 20%. Met?
Result: y

Problem: Given O=c1c2ccc([N+](=O)[O-])cc2nc(CSc2ncnc3[nH]cnc23)n1-c1ccccc1Cl , state whether its inhibition is at least 20%.
Result: n

Problem: Decide: inhibition of COc1ccccc1-n1c(CSc2ncnc3[nH]cnc23)nc2cccc(C)c2c1=O >= 20%?
Result: n

Problem: Is the recorded value of inhibition equal to or greater than 20% for this molecule? Nc1ncnc2c1ncn2Cc1nc2cccc(Cl)c2c(=O)n1-c1ccccc1-c1ccccc1
Result: y

Problem: Reported inhibition at or above 20%? Cc1cccc2nc(CSc3ncnc4[nH]cnc34)n(-c3ccccc3F)c(=O)c12
Result: n

Problem: Entry COc1cc2nc(Cn3cnc4c(N)ncnc43)n(-c3ccccc3Cl)c(=O)c2cc1OC : is its inhibition no less than 20%?
Result: n

Problem: Form field: inhibition at least 20%? Entry: O=c1c2c(F)cccc2nc(CSc2ncnc3[nH]cnc23)n1Cc1ccccc1
Result: n

Problem: Form field: inhibition at least 20%? Entry: O=c1c2cc(Cl)ccc2nc(CSc2ncnc3[nH]cnc23)n1-c1ccccc1Cl
Result: y

Problem: Hi, just wondering whether Nc1ncnc2c1ncn2Cc1nc2c(Cl)cccc2c(=O)n1-c1ccccc1Cl shows inhibition of 20% or higher.
Result: n

Problem: Dear colleague, could you confirm whether CCCCn1c(Cn2cnc3c(N)ncnc32)nc2ccccc2c1=O has inhibition at or above 20%?
Result: n

Problem: Please tell me: is the molecule O=c1c2cccc(C(F)(F)F)c2nc(CSc2ncnc3[nH]cnc23)n1-c1ccccc1Cl at or over 20% in terms of inhibition?
Result: n

Problem: Entry Cc1ccccc1-n1c(CSc2ncnc3[nH]cnc23)nc2cccc(Cl)c2c1=O : is its inhibition no less than 20%?
Result: y

Problem: Threshold query (inhibition >= 20%) on COc1cc2nc(CSc3ncnc4[nH]cnc34)n(-c3ccccc3Cl)c(=O)c2cc1OC
Result: n

Problem: Hello, I need to know if CCOC(=O)Cn1c(CSc2ncnc3[nH]cnc23)nc2cccc(F)c2c1=O has measured inhibition not below 20%. Thanks!
Result: n

Problem: Item COc1cccc(-n2c(CSc3ncnc4[nH]cnc34)nc3ccccc3c2=O)c1 with inhibition of 20% or above?
Result: y

Problem: Exam item: decide whether the reported inhibition for O=c1c2cc3ccccc3cc2nc(CSc2ncnc3[nH]cnc23)n1-c1ccccc1Cl is at least 20%.
Result: n

Problem: Could you tell me if the measured inhibition of O=c1c2ccccc2nc(CSc2ncnc3[nH]ncc23)n1-c1ccccc1Cl reaches 20% or more?
Result: y

Problem: Decide: is the reported value of inhibition for Cc1cccc2nc(Cn3cnc4c(N)ncnc43)n(-c3ccccc3C(C)C)c(=O)c12 equal to or greater than 20%?
Result: n

Problem: In plain terms: is recorded inhibition at least 20% for Nc1ncnc2c1ncn2Cc1nc2ccc(Br)cc2c(=O)n1-c1ccccc1Cl ?
Result: n

Problem: Dear colleague, could you confirm whether O=c1c2ccccc2nc(CSc2ncnc3[nH]cnc23)n1-c1cccc(Cl)c1 has inhibition at or above 20%?
Result: y

Problem: API: above_or_equal(metric=inhibition, cutoff=20%) for item Cc1cccc2nc(CSc3ncnc4[nH]cnc34)n(-c3c(Cl)cccc3Cl)c(=O)c12
Result: n
